Tested on: WT E. coli
ASSAY COMMENT: Minimal inhibitory concentration in wild-type E. coli
Format: cell-based, Escherichia coli
EXPERIMENTAL CONDITIONS: wild-type E. coli, 37° C., 16 hours; read-out: MIC (μM) in WT E. coli
READOUT: MIC

Task: For the compound CO[C@@H]1[C@@H](OC(N)=O)[C@@H](O)[C@H](Oc2ccc3c(O)c(NC(=O)c4cc(-c5ccccc5)c(OCc5ccccc5)cc4OCc4ccccc4)c(=O)oc3c2C)OC1(C)C [Compound 66] , report MIC.
Output: >300 µM

Task: For the compound CO[C@@H]1[C@@H](OC(N)=O)[C@@H](O)[C@H](Oc2ccc3c(O)c(NC(=O)c4cc(-c5ccccc5)c(O)cc4O)c(=O)oc3c2C)OC1(C)C [Compound 67] , report MIC.
Output: 18 µM

Task: For the compound CO[C@@H]1[C@@H](OC(N)=O)[C@@H](O)[C@H](Oc2ccc3c(O)c(NC(=O)c4cccc5ccn(C)c45)c(=O)oc3c2C)OC1(C)C [Compound 74] , report MIC.
Output: >300 µM

====

System: E. cloacae 13047
ASSAY COMMENT: Minimal inhibitory concentration, E. cloacae 13047
Type: cell-based
EXPERIMENTAL CONDITIONS: Enterobacter cloacae, 13047; 16 hour minimal inhibitory concentration at 37° C.; read-out: MIC (μM) E. cloacae 13047
Assignment: determine reported MIC for the given molecules.

Task: For the molecule "CO[C@@H]1[C@@H](OC(N)=O)[C@@H](O)[C@H](Oc2ccc3c(O)c(NC(=O)c4cccc(-c5cccc(C)c5)c4)c(=O)oc3c2C)OC1(C)C" , report MIC.
Output: > 100 µM

Task: For the molecule "CO[C@@H]1[C@@H](OC(N)=O)[C@@H](O)[C@H](Oc2ccc3c(O)c(NC(=O)c4cccc(Br)c4)c(=O)oc3c2C)OC1(C)C" , report MIC.
Output: > 100 µM

Task: For the molecule "CO[C@@H]1[C@@H](OC(N)=O)[C@@H](O)[C@H](Oc2ccc3c(O)c(NC(=O)c4cccc(-c5ccc(I)cc5)c4)c(=O)oc3c2C)OC1(C)C" , report MIC.
Output: > 100 µM

Task: For the molecule "CO[C@@H]1[C@@H](OC(N)=O)[C@@H](O)[C@H](Oc2ccc3c(O)c(NC(=O)c4cccc(Oc5ccc(C#N)cc5)c4)c(=O)oc3c2C)OC1(C)C" , report MIC.
Output: > 100 µM

Task: For the molecule "CO[C@@H]1[C@@H](OC(N)=O)[C@@H](O)[C@H](Oc2ccc3c(O)c(NC(=O)c4cccc(Oc5cccc(C(F)(F)F)c5)c4)c(=O)oc3c2C)OC1(C)C" , report MIC.
Output: > 100 µM

Task: For the molecule "CO[C@@H]1[C@@H](OC(N)=O)[C@@H](O)[C@H](Oc2ccc3c(O)c(NC(=O)c4ccc[nH]4)c(=O)oc3c2C)OC1(C)C" , report MIC.
Output: > 100 µM

Task: For the molecule "CO[C@@H]1[C@@H](OC(N)=O)[C@@H](O)[C@H](Oc2ccc3c(O)c(NC(=O)c4ccc(F)c(Oc5ccccc5)c4)c(=O)oc3c2C)OC1(C)C" , report MIC.
Output: 79 µM

Task: For the molecule "CO[C@@H]1[C@@H](OC(N)=O)[C@@H](O)[C@H](Oc2ccc3c(O)c(NC(=O)c4cc(Oc5ccccc5)c(O)cc4O)c(=O)oc3c2C)OC1(C)C" , report MIC.
Output: > 100 µM

Task: For the molecule "CO[C@@H]1[C@@H](OC(=O)Nc2ccccc2)[C@@H](O)[C@H](Oc2ccc3c(O)c(NC(=O)c4cccc(-c5ccc6ccccc6c5)c4)c(=O)oc3c2C)OC1(C)C" , report MIC.
Output: > 100 µM

Task: For the molecule "C=CCOc1c(NC(=O)c2ccc(O)c(CC=C(C)C)c2)c(=O)oc2c(C)c(O[C@@H]3OC(C)(C)[C@H](OC)[C@@H](OC(N)=O)[C@H]3O)ccc12" , report MIC.
Output: > 100 µM

Task: For the molecule "CO[C@@H]1[C@@H](OC(N)=O)[C@@H](O)[C@H](Oc2ccc3c(O)c(NC(=O)c4cccc(-c5ccc(Br)cc5)c4)c(=O)oc3c2C)OC1(C)C" , report MIC.
Output: > 100 µM

====

Test system: E. coli MC4100
ASSAY COMMENT: Minimal inhibitory concentration, E. coli MC4100
Format: cell-based
EXPERIMENTAL CONDITIONS: 16 hour minimal inhibitory concentration at 37° C.; read-out: MIC (μM) E. coli MC4100 ara+
Assignment: determine reported MIC for the given compounds.
Numbers only; they are read as µM.

Task: Provide MIC, recorded with E. coli MC4100, of "CO[C@@H]1[C@@H](OC(N)=O)[C@@H](O)[C@H](Oc2ccc3c(O)c(NC(=O)c4cccc(-c5ccccc5OC(F)(F)F)c4)c(=O)oc3c2C)OC1(C)C"
Output: 40

Task: Provide MIC, recorded with E. coli MC4100, of "CO[C@@H]1[C@@H](OC(N)=O)[C@@H](O)[C@H](Oc2ccc3c(O)c(NC(=O)c4ccc(C#Cc5ccccc5)cc4)c(=O)oc3c2C)OC1(C)C"
Output: 40

====

Assignment: determine reported MIC for the given compounds.
Tested on: E. cloacae 13047
ASSAY COMMENT: Minimal inhibitory concentration, E. cloacae 13047
Type: cell-based
EXPERIMENTAL CONDITIONS: Enterobacter cloacae, 13047; 16 hour minimal inhibitory concentration at 37° C.; read-out: MIC (μM) E. cloacae 13047

Task: For the compound "CO[C@@H]1[C@@H](OC(N)=O)[C@@H](O)[C@H](Oc2ccc3c(O)c(NC(=O)c4cccc(-c5ccccc5C)c4)c(=O)oc3c2C)OC1(C)C" , report MIC.
Output: > 100 µM

Task: For the compound "CO[C@@H]1[C@@H](OC(N)=O)[C@@H](O)[C@H](Oc2ccc3c(O)c(NC(=O)C4CC4)c(=O)oc3c2C)OC1(C)C" , report MIC.
Output: > 100 µM

Task: For the compound "CO[C@@H]1[C@@H](OC(N)=O)[C@@H](O)[C@H](Oc2ccc3c(O)c(NC(=O)c4cccc(-c5cccc(Br)c5)c4)c(=O)oc3c2C)OC1(C)C" , report MIC.
Output: > 100 µM

Task: For the compound "CO[C@@H]1[C@@H](OC(N)=O)[C@@H](O)[C@H](Oc2ccc3c(O)c(NC(=O)c4cccc(-c5c(C)cccc5C)c4)c(=O)oc3c2C)OC1(C)C" , report MIC.
Output: > 100 µM

Task: For the compound "CO[C@@H]1[C@@H](OC(N)=O)[C@@H](O)[C@H](Oc2ccc3c(O)c(NC(=O)c4ccnc(Oc5ccccc5)c4)c(=O)oc3c2C)OC1(C)C" , report MIC.
Output: > 100 µM

Task: For the compound "CO[C@@H]1[C@@H](OC(N)=O)[C@@H](O)[C@H](Oc2ccc3c(O)c(NC(=O)c4ccc(C)c(Oc5ccccc5)c4)c(=O)oc3c2C)OC1(C)C" , report MIC.
Output: 77 µM

====

Tested on: WT E. coli
ASSAY COMMENT: Minimal inhibitory concentration in wild-type E. coli
Assay type: cell-based, Escherichia coli
EXPERIMENTAL CONDITIONS: Escherichia coli; wild-type E. coli, 37° C., 16 hours; read-out: MIC (μM) in WT E. coli
Experimental: General Procedure for Determination of Minimal Inhibitory Concentrations Overnight cultures (5 mL) of bacterial strains were grown in LB media or TSA media (for S. aureus) at 37° C. and with shaking at 220 rpm until saturation. The overnight culture was diluted serially 1:100 (50 μL in 5 mL sterile media) and then 1:100 (250 μL in 25 mL sterile media). […] The plate was incubated without shaking in a 37° C. for 16 hours and then read by visible light spectrophotometer (Molecular Devices) at 600 nm. […]
Where a name gives a salt, the structure may show the parent alone.
READOUT: MIC

Task: For the compound CO[C@@H]1[C@@H](OC(N)=O)[C@@H](O)[C@H](Oc2ccc3c(O)c(NC(=O)c4ccc(C5CCCCC5)cc4)c(=O)oc3c2C)OC1(C)C [Compound 41] , report MIC.
Output: > 300 µM

Task: For the compound CO[C@@H]1[C@@H](OC(N)=O)[C@@H](O)[C@H](Oc2ccc3c(O)c(NC(=O)Nc4cccc(-c5ccccc5)c4)c(=O)oc3c2C)OC1(C)C [Compound 3] , report MIC.
Output: > 300 µM

Task: For the compound CO[C@@H]1[C@@H](OC(N)=O)[C@@H](O)[C@H](Oc2ccc3c(O)c(NC(=O)c4cc5ccccc5o4)c(=O)oc3c2C)OC1(C)C [Compound 6] , report MIC.
Output: > 300 µM

Task: For the compound CO[C@@H]1[C@@H](OC(N)=O)[C@@H](O)[C@H](Oc2ccc3c(O)c(NC(=O)c4ccc(-c5ccccc5)cc4)c(=O)oc3c2C)OC1(C)C [Compound 2] , report MIC.
Output: > 300 µM

Task: For the compound CO[C@@H]1[C@@H](OC(N)=O)[C@@H](O)[C@H](Oc2ccc3c(O)c(NC(=O)c4ccc(O)c(CC=C(C)C)c4)c(=O)oc3c2C)OC1(C)C [Novobiocin, novobiocin, reference compound] , report MIC.
Output: 59 µM

Task: For the compound CO[C@@H]1[C@@H](OC(N)=O)[C@@H](O)[C@H](Oc2ccc3c(O)c(NC(=O)c4cccc(-c5ccccc5C)c4)c(=O)oc3c2C)OC1(C)C [Compound 47] , report MIC.
Output: 26 µM

Task: For the compound CO[C@@H]1[C@@H](OC(N)=O)[C@@H](O)[C@H](Oc2ccc3c(O)c(NC(=O)c4cccc(-c5ccc(I)cc5)c4)c(=O)oc3c2C)OC1(C)C [Compound 34] , report MIC.
Output: 59 µM

Task: For the compound CO[C@@H]1[C@@H](OC(N)=O)[C@@H](O)[C@H](Oc2ccc3c(O)c(NC(=O)C(c4ccccc4)c4ccccc4)c(=O)oc3c2C)OC1(C)C [Compound 5] , report MIC.
Output: > 300 µM

Task: For the compound CO[C@@H]1[C@@H](OC(N)=O)[C@@H](O)[C@H](Oc2ccc3c(O)c(NC(=O)c4ccc5ccccc5c4)c(=O)oc3c2C)OC1(C)C [Compound 4] , report MIC.
Output: > 300 µM

Task: For the compound CO[C@@H]1[C@@H](OC(N)=O)[C@@H](O)[C@H](Oc2ccc3c(O)c(NC(=O)c4cccc(-c5cccs5)c4)c(=O)oc3c2C)OC1(C)C [Compound 22] , report MIC.
Output: 89 µM

Task: For the compound COC1[C@H](OC(N)=O)C(O)[C@H](Oc2ccc3c(O)c(N)c(=O)oc3c2C)OC1(C)C (some centres unmarked) [Compound 19, novenamine hydrochloride] , report MIC.
Output: > 300 µM

Task: For the compound CO[C@@H]1[C@@H](OC(N)=O)[C@@H](O)[C@H](Oc2ccc3c(O)c(NC(=O)c4cccc(-c5cccc(F)c5)c4)c(=O)oc3c2C)OC1(C)C [Compound 38] , report MIC.
Output: 26 µM

Task: For the compound CO[C@@H]1[C@@H](OC(N)=O)[C@@H](O)[C@H](Oc2ccc3c(O)c(NC(=O)C4CC4)c(=O)oc3c2C)OC1(C)C [Compound 13] , report MIC.
Output: > 300 µM

Task: For the compound CO[C@@H]1[C@@H](OC(N)=O)[C@@H](O)[C@H](Oc2ccc3c(O)c(NC(=O)c4cccc(-c5ccncc5)c4)c(=O)oc3c2C)OC1(C)C [Compound 32] , report MIC.
Output: > 300 µM

Task: For the compound COc1ccc(-c2cccc(C(=O)Nc3c(O)c4ccc(O[C@@H]5OC(C)(C)[C@H](OC)[C@@H](OC(N)=O)[C@H]5O)c(C)c4oc3=O)c2)cc1 [Compound 46] , report MIC.
Output: > 300 µM

Task: For the compound CO[C@@H]1[C@@H](OC(N)=O)[C@@H](O)[C@H](Oc2ccc3c(O)c(NC(=O)c4cccc(-c5ccc(Cl)cc5)c4)c(=O)oc3c2C)OC1(C)C [Compound 33] , report MIC.
Output: 18 µM

Task: For the compound CO[C@@H]1[C@H](OC(N)=O)C(O)[C@H](Oc2ccc3c(O)c(NS(=O)(=O)c4cccc(-c5ccccc5)c4)c(=O)oc3c2C)OC1(C)C (some centres unmarked) [Compound 36] , report MIC.
Output: > 300 µM

Task: For the compound CO[C@@H]1[C@@H](OC(N)=O)[C@@H](O)[C@H](Oc2ccc3c(O)c(NC(=O)c4cccc(-c5ccccc5F)c4)c(=O)oc3c2C)OC1(C)C [Compound 37] , report MIC.
Output: 59 µM

Task: For the compound CO[C@@H]1[C@@H](OC(N)=O)[C@@H](O)[C@H](Oc2ccc3c(O)c(NC(=O)c4cccc(-c5cccnc5)c4)c(=O)oc3c2C)OC1(C)C [Compound 29] , report MIC.
Output: > 300 µM

Task: For the compound CO[C@@H]1[C@@H](OC(N)=O)[C@@H](O)[C@H](Oc2ccc3c(O)c(NC(=O)c4cccc(Oc5ccccc5)c4)c(=O)oc3c2C)OC1(C)C [Compound 35] , report MIC.
Output: 8 µM

Task: For the compound CO[C@@H]1[C@@H](OC(N)=O)[C@@H](O)[C@H](Oc2ccc3c(O)c(NC(=O)/C=C/c4ccccc4)c(=O)oc3c2C)OC1(C)C [Compound 27] , report MIC.
Output: > 300 µM

Task: For the compound COc1cccc(OC)c1C(=O)Nc1c(O)c2ccc(O[C@@H]3OC(C)(C)[C@H](OC)[C@@H](OC(N)=O)[C@H]3O)c(C)c2oc1=O [Compound 10] , report MIC.
Output: > 300 µM

Task: For the compound CO[C@@H]1[C@@H](OC(N)=O)[C@@H](O)[C@H](Oc2ccc3c(O)c(NC(=O)CCc4ccccc4)c(=O)oc3c2C)OC1(C)C [Compound 43] , report MIC.
Output: > 300 µM
